- Assay Target: T1, CD3 epsilon homodimer protein (UniProt P07766 23-126)
- T1 construct: also called CD3 (CD3 epsilon)
- T1 sequence (P07766 23-126): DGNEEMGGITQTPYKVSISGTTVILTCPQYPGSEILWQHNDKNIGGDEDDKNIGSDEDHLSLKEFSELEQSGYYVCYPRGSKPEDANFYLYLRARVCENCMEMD
- Experiment Description: SPR, antibody over immobilised CD3e homodimer;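 further: SPR at 25 °C with CD3 epsilon homodimer amine-coupled to a CM4 sensor chip and antibody flowed over as analyte in HBS-EP+ running buffer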
Measured Quantity: KD ratio to GLS3000
Form field (numeric): enter value without unit.

Solved entries (count: 2):
CE115HA000/GLS3000 Q27E (antibody, IgG1, name in Kabat numbering, V domains shown, one-arm IgG1) VH: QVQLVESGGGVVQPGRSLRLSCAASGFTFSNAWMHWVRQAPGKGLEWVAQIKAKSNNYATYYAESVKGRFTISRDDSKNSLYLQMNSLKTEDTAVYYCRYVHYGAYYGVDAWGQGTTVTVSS VL: DIVMTQSPLSLPVTPGEPASISCRSSESLVHSNRNTYLHWYQQKPGQAPRLLIYKVSNRFSGVPDRFSGSGSGTDFTLKISRVEAEDVGVYYCGQGTQVPYTFGQGTKLEIK: 0.99
CE115HA000/GLS3000 R54Q (antibody, IgG1, name in Kabat numbering, V domains shown, one-arm IgG1) VH: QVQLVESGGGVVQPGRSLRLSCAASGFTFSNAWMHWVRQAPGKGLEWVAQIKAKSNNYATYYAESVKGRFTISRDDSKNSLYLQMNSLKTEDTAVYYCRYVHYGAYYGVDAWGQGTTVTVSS VL: DIVMTQSPLSLPVTPGEPASISCRSSQSLVHSNRNTYLHWYQQKPGQAPRLLIYKVSNQFSGVPDRFSGSGSGTDFTLKISRVEAEDVGVYYCGQGTQVPYTFGQGTKLEIK: 1.04

Please find the next binder below.
QUERY: # query: KD ratio to GLS3000 of entry CE115HA000/GLS3000 N53L (antibody, IgG1, name in Kabat numbering, V domains shown, one-arm IgG1) VH: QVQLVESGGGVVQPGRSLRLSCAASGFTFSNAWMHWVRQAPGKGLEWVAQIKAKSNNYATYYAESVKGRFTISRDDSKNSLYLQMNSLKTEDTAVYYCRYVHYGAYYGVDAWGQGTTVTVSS VL: DIVMTQSPLSLPVTPGEPASISCRSSQSLVHSNRNTYLHWYQQKPGQAPRLLIYKVSLRFSGVPDRFSGSGSGTDFTLKISRVEAEDVGVYYCGQGTQVPYTFGQGTKLEIK
RESULT: 1.62
